FYI, the data here is from patent US20190322750A1.

Biological target: T1, human PD-L1 over-expressed on HEK293E cells (human, UniProt Q9NZQ7 19-290)
T1 construct: whole, on cells; also called human PD-L1 (NM_014143.2)
T1 sequence (Q9NZQ7 19-290): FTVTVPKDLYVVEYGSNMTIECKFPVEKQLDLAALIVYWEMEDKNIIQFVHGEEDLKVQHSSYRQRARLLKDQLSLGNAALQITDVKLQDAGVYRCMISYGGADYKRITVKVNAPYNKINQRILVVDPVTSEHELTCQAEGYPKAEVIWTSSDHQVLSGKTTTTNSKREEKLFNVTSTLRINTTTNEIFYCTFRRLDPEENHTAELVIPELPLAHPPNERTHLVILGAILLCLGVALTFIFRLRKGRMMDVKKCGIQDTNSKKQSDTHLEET
Test: flow cytometry on HEK293E/PD-L1 cells, FITC anti-human IgG, serial dilutions; fit table
Give measured Kd for each item. Keep answers brief.
Provide only the numeric value, understood in nM.

get_value(item= PDL1-16E12 (LS/4A11) (antibody, V domains shown, also called PD-L1-16E12-4A11) VH: QMQLVQSGAEVKKPGSSVKVSCKASGGTFSSYAISWVRQAPGQGLEWMGRIIPILGIANYAQKFQGRVTITADKSTSTAYMELSSLRSEDTAVYYCAKPRDGYNLVAFDIWGQGTMVTVSS VL: QLVLTQPPSVSGAPGQRVIISCTGSSSNIGAGYDVHWYQQVPGTAPKLLIYGNNHRPSGVPDRFSGSKSGTSASLAITGLQAEDETDYYCQSYDNRLSGSLFGGGTKLTVL , readout=Kd) returns 2.57

get_value(item= PDL1-16E12 (LS/4H5) (antibody, V domains shown, also called PD-L1-16E12-4H5) VH: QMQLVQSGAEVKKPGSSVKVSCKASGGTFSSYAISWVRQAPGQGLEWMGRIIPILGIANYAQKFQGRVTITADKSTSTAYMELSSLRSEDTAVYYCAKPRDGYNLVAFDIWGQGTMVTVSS VL: QLVLTQPPSVSGAPGQRVTISCTGSSSNIGAGYDVHWYQQLPGTAPKLLIYGNSNRPSGVPDRFSGSKSGTSASLAITGLQAEDEADYYCQSYDSSLSGGVFGGGTKLTVL , readout=Kd) returns 1.93
